Biological target: Aldo-keto reductase family 1 member C2 (Homo sapiens)
Sequence (P52895 whole entry): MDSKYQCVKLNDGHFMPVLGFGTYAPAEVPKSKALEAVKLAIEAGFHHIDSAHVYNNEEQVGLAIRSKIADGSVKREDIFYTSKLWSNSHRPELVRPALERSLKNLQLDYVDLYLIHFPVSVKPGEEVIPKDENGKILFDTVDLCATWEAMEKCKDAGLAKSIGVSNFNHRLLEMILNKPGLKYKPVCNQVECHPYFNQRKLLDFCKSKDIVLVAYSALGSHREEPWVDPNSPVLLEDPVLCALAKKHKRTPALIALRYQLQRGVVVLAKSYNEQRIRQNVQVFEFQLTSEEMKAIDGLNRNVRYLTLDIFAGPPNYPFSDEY
Assay: Inhibition of AKR1C2 (unknown origin) in human HEK293T cells assessed as turnover of coumberone to coumberol by live cell coumberone reduction assay
measured.quantity: pIC50
Scale: pIC50 equals -log10([C]), with [C] in mol/L.

Exercise: Which pIC50 is reported with Aldo-keto reductase family 1 member C2 (Homo sapiens) for this entry: `COc1ccccc1N1CCN(C(=O)c2ccc(S(=O)(=O)n3cnc(C4CCCCC4)n3)cc2)CC1` ?
Solution: 4.64
